Target: recombinant human PAD2 (human, UniProt Q9Y2J8 1-665)
Sequence (Q9Y2J8 whole entry): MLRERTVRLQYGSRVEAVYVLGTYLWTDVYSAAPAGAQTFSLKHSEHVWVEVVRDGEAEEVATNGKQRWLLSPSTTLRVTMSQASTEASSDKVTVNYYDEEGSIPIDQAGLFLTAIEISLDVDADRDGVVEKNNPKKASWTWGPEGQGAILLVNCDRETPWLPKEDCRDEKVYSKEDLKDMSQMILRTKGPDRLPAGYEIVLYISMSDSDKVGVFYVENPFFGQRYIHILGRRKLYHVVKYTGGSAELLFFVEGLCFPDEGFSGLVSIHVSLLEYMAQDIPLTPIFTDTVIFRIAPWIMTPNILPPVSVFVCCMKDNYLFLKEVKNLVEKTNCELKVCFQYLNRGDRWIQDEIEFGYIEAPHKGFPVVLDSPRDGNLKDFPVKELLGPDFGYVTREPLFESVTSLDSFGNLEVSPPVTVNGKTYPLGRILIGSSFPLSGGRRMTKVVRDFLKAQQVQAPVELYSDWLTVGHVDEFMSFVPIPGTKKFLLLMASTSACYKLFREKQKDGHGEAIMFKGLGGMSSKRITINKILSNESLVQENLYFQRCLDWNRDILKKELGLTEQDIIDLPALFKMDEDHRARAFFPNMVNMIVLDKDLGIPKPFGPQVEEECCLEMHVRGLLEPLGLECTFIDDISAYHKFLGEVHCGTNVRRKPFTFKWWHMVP
Assay: cell-based or functional assay
Square brackets hold non-standard residues; d marks the D form. * marks the point of attachment. Orn(fluoroacetimidoyl) = N=C(CF)NCCC[C@H](N)C(=O)O; 2Naphthylsulfonyl = O=S(=O)(c1ccc2ccccc2c1)*; AEEA = NCCOCCOCC(=O)O
Below, each of the binders is paired with its reported Inhibition of PAD2: value at 10 µM inhibitor (0 µM: 76) value.
measurement_type: Inhibition of PAD2: value at 10 µM inhibitor (0 µM: 76) (%)

2Naphthylsulfonyl-KWH[Orn(fluoroacetimidoyl)]DFF-NH2 (SMILES N=C(CF)NCCC[C@H](NC(=O)[C@H](Cc1c[nH]cn1)NC(=O)[C@H](Cc1c[nH]c2ccccc12)NC(=O)[C@H](CCCCN)NS(=O)(=O)c1ccc2ccccc2c1)C(=O)N[C@@H](CC(=O)O)C(=O)N[C@@H](Cc1ccccc1)C(=O)N[C@@H](Cc1ccccc1)C(N)=O) [0837-30FA] | 9
2Naphthylsulfonyl-KWH[Orn(fluoroacetimidoyl)]DFF[AEEA]-NH2 (SMILES N=C(CF)NCCC[C@H](NC(=O)[C@H](Cc1c[nH]cn1)NC(=O)[C@H](Cc1c[nH]c2ccccc12)NC(=O)[C@H](CCCCN)NS(=O)(=O)c1ccc2ccccc2c1)C(=O)N[C@@H](CC(=O)O)C(=O)N[C@@H](Cc1ccccc1)C(=O)N[C@@H](Cc1ccccc1)C(=O)NCCOCCOCC(N)=O) [0837-28FA] | 17
Ac-KWH[Orn(fluoroacetimidoyl)]DFF-NH2 (SMILES CC(=O)N[C@@H](CCCCN)C(=O)N[C@@H](Cc1c[nH]c2ccccc12)C(=O)N[C@@H](Cc1c[nH]cn1)C(=O)N[C@@H](CCCNC(=N)CF)C(=O)N[C@@H](CC(=O)O)C(=O)N[C@@H](Cc1ccccc1)C(=O)N[C@@H](Cc1ccccc1)C(N)=O) [0748-09FA] | 25
Ac-KWH[Orn(fluoroacetimidoyl)]DFF[AEEA]-NH2 (SMILES CC(=O)N[C@@H](CCCCN)C(=O)N[C@@H](Cc1c[nH]c2ccccc12)C(=O)N[C@@H](Cc1c[nH]cn1)C(=O)N[C@@H](CCCNC(=N)CF)C(=O)N[C@@H](CC(=O)O)C(=O)N[C@@H](Cc1ccccc1)C(=O)N[C@@H](Cc1ccccc1)C(=O)NCCOCCOCC(N)=O) [0837-14FA] | 38
